MEASUREMENT TARGET: the molecule itself
MEASUREMENT NOTES: native gel or EMSA; 4–12% gradient native Tris-Glycine gel; samples kept and gel run at room temperature (20°C), 150 V, Coomassie blue stain
ENDPOINT LABEL: binding result

DmHsp27 G32A (natural protein, Drosophila melanogaster, UniProt P02518 1-213, looked up, DmHsp27 (Hsp27), Drosophila melanogaster, with G32A; source: E. coli BL21 (DE3) pLysS, purified (Ni-NTA, SEC on Superose 6)) MSIIPLLHLARELDHDYRTDWGHLLEDDFGFAVHAHDLFHPRRLLLPNTLGLGRRRYSPYERSHGHHNQMSRRASGGPNALLPAVGKDGFQVCMDVSQFKPNELTVKVVDNTVVVEGKHEEREDGHGMIQRHFVRKYTLPKGFDPNEVVSTVSSDGVLTLKAPPPPSKEQAKSERIVQIQQTGPAHLSVKAPAPEAGDGKAENGSGEKMETSK; binds
DmHsp27 G32R (natural protein, Drosophila melanogaster, UniProt P02518 1-213, looked up, DmHsp27 (Hsp27), Drosophila melanogaster, with G32R; source: E. coli BL21 (DE3) pLysS, purified (Ni-NTA, SEC on Superose 6)) MSIIPLLHLARELDHDYRTDWGHLLEDDFGFRVHAHDLFHPRRLLLPNTLGLGRRRYSPYERSHGHHNQMSRRASGGPNALLPAVGKDGFQVCMDVSQFKPNELTVKVVDNTVVVEGKHEEREDGHGMIQRHFVRKYTLPKGFDPNEVVSTVSSDGVLTLKAPPPPSKEQAKSERIVQIQQTGPAHLSVKAPAPEAGDGKAENGSGEKMETSK; binds
DmHsp27 S75A (natural protein, Drosophila melanogaster, UniProt P02518 1-213, looked up, DmHsp27 (Hsp27), Drosophila melanogaster, with S75A; source: E. coli BL21 (DE3) pLysS, purified (Ni-NTA, SEC on Superose 6)) MSIIPLLHLARELDHDYRTDWGHLLEDDFGFGVHAHDLFHPRRLLLPNTLGLGRRRYSPYERSHGHHNQMSRRAAGGPNALLPAVGKDGFQVCMDVSQFKPNELTVKVVDNTVVVEGKHEEREDGHGMIQRHFVRKYTLPKGFDPNEVVSTVSSDGVLTLKAPPPPSKEQAKSERIVQIQQTGPAHLSVKAPAPEAGDGKAENGSGEKMETSK; binds
DmHsp27 F31A (natural protein, Drosophila melanogaster, UniProt P02518 1-213, looked up, DmHsp27 (Hsp27), Drosophila melanogaster, with F31A; source: E. coli BL21 (DE3) pLysS, purified (Ni-NTA, SEC on Superose 6)) MSIIPLLHLARELDHDYRTDWGHLLEDDFGAGVHAHDLFHPRRLLLPNTLGLGRRRYSPYERSHGHHNQMSRRASGGPNALLPAVGKDGFQVCMDVSQFKPNELTVKVVDNTVVVEGKHEEREDGHGMIQRHFVRKYTLPKGFDPNEVVSTVSSDGVLTLKAPPPPSKEQAKSERIVQIQQTGPAHLSVKAPAPEAGDGKAENGSGEKMETSK; binds
DmHsp27 S58/75A (natural protein, Drosophila melanogaster, UniProt P02518 1-213, looked up, DmHsp27 (Hsp27), Drosophila melanogaster, with S58A and S75A; source: E. coli BL21 (DE3) pLysS, purified (Ni-NTA, SEC on Superose 6)) MSIIPLLHLARELDHDYRTDWGHLLEDDFGFGVHAHDLFHPRRLLLPNTLGLGRRRYAPYERSHGHHNQMSRRAAGGPNALLPAVGKDGFQVCMDVSQFKPNELTVKVVDNTVVVEGKHEEREDGHGMIQRHFVRKYTLPKGFDPNEVVSTVSSDGVLTLKAPPPPSKEQAKSERIVQIQQTGPAHLSVKAPAPEAGDGKAENGSGEKMETSK; binds

For the next question, use this protein.
Data request: Would you mind telling me what binding result value was observed for DmHsp27 F29Y (natural protein, Drosophila melanogaster, UniProt P02518 1-213, looked up, DmHsp27 (Hsp27), Drosophila melanogaster, with F29Y; source: E. coli BL21 (DE3) pLysS, purified (Ni-NTA, SEC on Superose 6)) MSIIPLLHLARELDHDYRTDWGHLLEDDYGFGVHAHDLFHPRRLLLPNTLGLGRRRYSPYERSHGHHNQMSRRASGGPNALLPAVGKDGFQVCMDVSQFKPNELTVKVVDNTVVVEGKHEEREDGHGMIQRHFVRKYTLPKGFDPNEVVSTVSSDGVLTLKAPPPPSKEQAKSERIVQIQQTGPAHLSVKAPAPEAGDGKAENGSGEKMETSK ?
Data returned: binds
